Every entry's value here was drawn from patent US20240141060A1.

So I've got a bunch of binders here, and I need their pKd values.
Target: T1, Cynomolgus CD73/NT5E Protein (His Tag) (Sino Biological Cat: 90192-C08H-50) (cynomolgus monkey, UniProt A0A2K5V5U7 27-547)
T1 construct: treated as one protein; also called Cynomolgus CD73-His; recombinant cynomolgus monkey CD73; not shown: His tag
T1 sequence: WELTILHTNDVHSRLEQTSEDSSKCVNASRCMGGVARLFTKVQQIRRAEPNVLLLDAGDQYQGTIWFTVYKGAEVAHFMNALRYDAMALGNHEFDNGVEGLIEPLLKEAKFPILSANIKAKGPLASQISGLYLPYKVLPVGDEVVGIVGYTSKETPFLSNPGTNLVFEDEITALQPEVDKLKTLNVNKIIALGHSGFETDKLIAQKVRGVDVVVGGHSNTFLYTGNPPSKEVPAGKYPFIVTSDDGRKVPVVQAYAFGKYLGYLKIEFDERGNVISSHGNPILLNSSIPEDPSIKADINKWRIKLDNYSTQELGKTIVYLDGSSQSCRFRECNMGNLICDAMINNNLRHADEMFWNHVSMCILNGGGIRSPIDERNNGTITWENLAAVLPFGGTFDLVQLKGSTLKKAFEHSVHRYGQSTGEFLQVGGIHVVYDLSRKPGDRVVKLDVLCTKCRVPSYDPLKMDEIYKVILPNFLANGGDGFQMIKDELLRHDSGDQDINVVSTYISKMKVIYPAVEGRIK
Experiment: ForteBio Octet RED384 (BLI), whole IgG on AHQ sensors, 100 nM antigen, 1:1 model
Numbers only, as −log10 of the molar value.

Worked cases, pKd given:
358.C (antibody, V domains shown) VH: QVQLQESGPGLVKPSETLSLTCTVSGGSISGRYWSWIRQPPGKGLEWIGYIYGTGSTNYNPSLKSRVTISVDTSKNQFSLKLSSVTAADTAVYYCARESQESPYNNWFDPWGQGTLVTVSS VL: DIQMTQSPSSVSASVGDRVTITCRASQGISSWLAWYQQKPGKAPKLLIYAASSLQSGVPSRFSGSGSGTDFTLTISSLQPEDFATYYCQQGNSFPRTFGGGTKVEIK
9.09
374.C (antibody, V domains shown) VH: EVQLLESGGGLVQPGGSLRLSCAASGFTFSYNAMSWVRQAPGKGLEWVSSISGTGGSTYYADSVKGRFTISRDNSKNTLYLQMNSLRAEDTAVYYCARGGLYGSGSYLSDFDLWGRGTLVTVSS VL: EIVLTQSPATLSVSPGERATLSCRASQSVGSNLAWYQQKPGQAPRLLIYGASTRATGIPARFSGSGSGTEFTLTISSLQSEDFAVYYCQQHNAFPYTFGGGTKVEIK
9.99

Consider the record given below.
For 356.C (antibody, V domains shown) VH: QVQLQESGPGLVKPSETLSLTCTVSGGSIEGRYWSWIRQPPGKGLEWIGYIYGSGSTKYNPSLKSRVTISVDTSKNQFSLKLSSVTAADTAVYYCARESQESPYNNWFDPWGQGTLVTVSS VL: DIQMTQSPSSVSASVGDRVTITCRASQGISSWLAWYQQKPGKAPKLLIYAASSLQSGVPSRFSGSGSGTDFTLTISSLQPEDFATYYCQQGNSFPRTFGGGTKVEIK the binder record lists pKd as 9.16
